molecular target: Prostaglandin E2 receptor EP4 subtype (Homo sapiens, UniProt P35408)
Sequence (P35408 whole entry): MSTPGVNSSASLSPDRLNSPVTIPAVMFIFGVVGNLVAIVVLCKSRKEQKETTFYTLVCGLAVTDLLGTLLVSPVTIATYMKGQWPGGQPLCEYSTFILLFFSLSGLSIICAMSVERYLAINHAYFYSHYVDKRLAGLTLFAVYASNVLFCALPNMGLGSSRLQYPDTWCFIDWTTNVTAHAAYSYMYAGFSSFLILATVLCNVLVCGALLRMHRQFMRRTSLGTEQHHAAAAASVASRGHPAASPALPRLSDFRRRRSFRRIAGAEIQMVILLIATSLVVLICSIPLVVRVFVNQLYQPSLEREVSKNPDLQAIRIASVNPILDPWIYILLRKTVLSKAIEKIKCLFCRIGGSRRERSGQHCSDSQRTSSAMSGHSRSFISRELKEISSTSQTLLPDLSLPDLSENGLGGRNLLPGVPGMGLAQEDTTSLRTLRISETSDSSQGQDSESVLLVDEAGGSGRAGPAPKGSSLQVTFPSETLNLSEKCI
OBSERVED PROPERTY: log10 IC50 (log10 of the value in nM)

SMILES NOTATION	log10 IC50
C[C@H](NC(=O)c1c(-c2ccccc2)nnn1Cc1ccc(F)cc1)c1ccc(C(=O)O)cc1	2.52
C[C@H](NC(=O)c1c(-c2ccccc2)nnn1CCOc1ccc(C(F)(F)F)cc1)c1ccc(C(=O)O)cc1	1.69
COc1cccc(Cn2nnc(-c3ccccc3)c2C(=O)N[C@@H](C)c2ccc(C(=O)O)cc2)c1	1.99
C[C@H](NC(=O)c1c(-c2ccsc2)nnn1Cc1ccc(C(F)(F)F)cc1)c1ccc(C(=O)O)cc1	1.11
COc1ccc(Cn2nnc(-c3ccccc3)c2C(=O)N[C@@H](C)c2ccc(C(=O)O)cc2)cc1OC	2.08
C/C=C/c1nnn(Cc2ccc(C(F)(F)F)cc2)c1C(=O)NCc1ccc(C(=O)O)cc1	1.02

These measurements were taken from ChEMBL document CHEMBL4376865.
